MEASURED TARGET: HLA-B*39:01
RUN DESCRIPTION: IEDB peptide-MHC binding, purified MHC/competitive/fluorescence; filed as Kd, often an IC50 or EC50 that approximates it; bounds were set here for any values at or beyond the usual limits of such assays
CONDITION INFO: source organism: Mycobacterium tuberculosis variant bovis BCG str. Pasteur 1173P2
PROPERTY MEASURED: Kd

{"SEQ TEXT": "GPASLPTAL", "PROPERTY MEASURED": "Kd", "REPORTED RESULT": "679 nM"}

###

# reported pKd; entries follow
MEASURED TARGET: HLA-A*29:02
RUN DESCRIPTION: IEDB peptide-MHC binding, purified MHC/competitive/radioactivity; filed as Kd, often an IC50 or EC50 that approximates it; bounds were set here for any values at or beyond the usual limits of such assays
CONDITION INFO: source organism: Lymphocytic choriomeningitis virus (strain Armstrong)
pKd: −log10 of the molar value.
PROPERTY MEASURED: pKd

{"SEQ TEXT": "SFYADPKRFF", "MEASURED TARGET": "HLA-A*29:02", "PROPERTY MEASURED": "pKd", "REPORTED RESULT": 7.35}
{"SEQ TEXT": "PMMCPFLFL", "MEASURED TARGET": "HLA-A*29:02", "PROPERTY MEASURED": "pKd", "REPORTED RESULT": 6.68}
